So I've got a bunch of compounds here, and I need their pIC50 values.
system: IFNγ-Induced NO Production in RAW 264.7 cells; experiment: Nitric Oxide Suppression Assay (suppression of IFNγ-induced NO production); format: cell-based; conditions: RAW264.7; RAW 264.7 mouse macrophage cells, 20 ng/mL interferon gamma, Griess detection; single curve fit to mean data of n=2-3
Here pIC50 is given on a logarithmic scale as minus log10 of the concentration in mol/L.

Please look up its pIC50: CCC(C)CNC(=O)[C@@]1(C)CC[C@]2(C)CC[C@@]3(C)[C@]4(C)CC[C@H]5C(C)(C)C(=O)C(C#N)=C[C@]5(C)C4=CC(=O)[C@]3(O)[C@@H]2C1 (some centres unmarked)
7.36

Cool, now COCCNC(=O)[C@@]1(C)CC[C@]2(C)CC[C@@]3(C)[C@]4(C)CC[C@H]5C(C)(C)C(=O)C(C#N)=C[C@]5(C)C4=CC(=O)[C@]3(O)[C@@H]2C1
8.07

Lookup COC(=O)[C@@H]1CCCN1C(=O)[C@@]1(C)CC[C@]2(C)CC[C@@]3(C)[C@]4(C)CC[C@H]5C(C)(C)C(=O)C(C#N)=C[C@]5(C)C4=CC(=O)[C@]3(O)[C@@H]2C1
7.78

What do we get for COC(=O)[C@@]1(C)CC[C@]2(C)CC[C@]3(C)[C@H](C(=O)C=C4[C@@]5(C)C=C(C#N)C(=O)C(C)(C)[C@@H]5CC[C@]43C)[C@@H]2C1 ?
6.70

Please give the result for CC1(C)C(=O)C(C#N)=C[C@]2(C)C3=CC(=O)[C@]4(O)[C@@H]5C[C@@](C)(C(=O)n6ccnc6)CC[C@]5(C)CC[C@@]4(C)[C@]3(C)CC[C@@H]12 too.
6.57
